assay: Metabolic stability in rat liver microsomes assessed as intrinsic clearance
quantity-measured: CLint scaled (mL/min/kg)

{"compound": "O=C1C2=C(CCN(Cc3ccccc3)C2)N2CCN=C2N1Cc1ccc(C(F)(F)F)cc1", "quantity-measured": "CLint scaled", "test-result": 487}

---

assay: in vivo; conditions: ICR, mouse, po, 10 mg/kg
Description: Oral bioavailability in ICR mouse at 10 mg/kg measured upto 24 hrs by LC-MS/MS analysis
quantity-measured: bioavailability at 24 h (%)

{"compound": "O=C1C2=C(CCN(Cc3ccccc3)C2)N2CCN=C2N1Cc1ccc(C(F)(F)F)cc1", "unit-string": "%", "test-result": 43.7}

---

assay: in vivo; conditions: rat, blood, iv, 10 mg/kg
Description: Elimination half life in rat blood at 10 mg/kg, iv measured after 12 hrs
Non-standard residues stand in square brackets, D forms with d. Residues, ends and D or L forms follow the SMILES beside them. αMeP = C[C@@]1(C(=O)O)CCCN1

{"compound": "C[C@@]1(C(=O)N[C@@H](CCC(=O)O)C(=O)O)CCCN1C(=O)CN [TROFINETIDE] (H-Gly-[αMeP]-Glu-OH)", "unit-string": "h", "half-life at 12 h": 1.23}

---

target: ATP-dependent Clp protease proteolytic subunit, mitochondrial (Homo sapiens, UniProt Q16740); test: Activation of human ClpP extracted from Escherichia coli using Ac-WLA-AMC as substrate assessed as fluorescence signal measured after 10 mins incubation
Sequence (Q16740 whole entry): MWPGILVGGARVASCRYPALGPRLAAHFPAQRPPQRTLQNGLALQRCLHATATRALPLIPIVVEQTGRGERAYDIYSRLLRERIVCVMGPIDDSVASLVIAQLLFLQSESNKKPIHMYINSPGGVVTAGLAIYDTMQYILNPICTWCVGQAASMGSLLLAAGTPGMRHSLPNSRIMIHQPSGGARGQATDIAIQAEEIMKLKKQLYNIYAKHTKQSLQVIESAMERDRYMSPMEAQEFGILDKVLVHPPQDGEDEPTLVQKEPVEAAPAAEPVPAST

{"compound": "C[C@@H]1Cc2nc(NCc3ccc(C(F)(F)F)cc3)[nH]c(=O)c2CN1Cc1cccc(Br)c1", "unit-string": "µM", "EC50": 0.0628}
{"compound": "Cc1ccc(CNc2nc3c(c(=O)[nH]2)CN(Cc2cccc(C#N)c2)[C@H](C)C3)cc1", "unit-string": "µM", "EC50": 0.0269}
{"compound": "C[C@@H]1Cc2nc(NCc3ccc(C(F)(F)F)cc3)[nH]c(=O)c2CN1Cc1ccncc1", "unit-string": "µM", "EC50": 3.96}
{"compound": "C[C@@H]1Cc2nc(NCc3ccc(C(F)(F)F)cc3)[nH]c(=O)c2CN1Cc1ccc(C#N)cc1", "unit-string": "µM", "EC50": 1.36}
{"compound": "Cc1ccccc1CNc1nc2c(c(=O)[nH]1)CN(Cc1cccc(C#N)c1)[C@H](C)C2", "unit-string": "µM", "EC50": 0.0434}
{"compound": "C[C@@H]1Cc2nc(NCc3cccc(Br)c3)[nH]c(=O)c2CN1Cc1cccc(C#N)c1", "unit-string": "µM", "EC50": 0.0448}
{"compound": "C[C@@H]1Cc2nc(NCC3CC3)[nH]c(=O)c2CN1Cc1cccc(C#N)c1", "unit-string": "µM", "EC50": 1.43}
{"compound": "C[C@@H]1Cc2nc(NCc3ccc(C(F)(F)F)cc3)[nH]c(=O)c2CN1Cc1cccc(OC(F)(F)F)c1", "unit-string": "µM", "EC50": 0.27}
{"compound": "C[C@@H]1Cc2nc(NCc3ccc(C(F)(F)F)cc3)[nH]c(=O)c2CN1Cc1ccccc1F", "unit-string": "µM", "EC50": 1.29}

---

target: ATP-dependent Clp protease proteolytic subunit, mitochondrial (Homo sapiens, UniProt Q16740); assay: Activation of human ClpP extracted from Escherichia coli using Ac-WLA-AMC as substrate assessed as fluorescence signal measured after 10 mins incubation
pEC50: −log10 of the molar value.
quantity-measured: pEC50

{"compound": "C[C@@H]1Cc2nc(NCc3ccc(C(F)(F)F)cc3)[nH]c(=O)c2CN1Cc1ccc(F)cc1", "test-result": 6.31}
{"compound": "C[C@@H]1Cc2nc(NCc3ccc(C(F)(F)F)cc3)[nH]c(=O)c2CN1Cc1cccc(Cl)c1", "test-result": 6.82}
{"compound": "C[C@@H]1Cc2nc(NCc3cccc4ccccc34)[nH]c(=O)c2CN1Cc1cccc(C#N)c1", "test-result": 7.17}
{"compound": "C[C@@H]1Cc2nc(NCc3ccc(Cl)cc3)[nH]c(=O)c2CN1Cc1cccc(C#N)c1", "test-result": 7.23}
{"compound": "C[C@@H]1Cc2nc(NCc3ccc(C(F)(F)F)cc3)[nH]c(=O)c2CN1Cc1cccnc1", "test-result": 5.47}
